- TARGET OF ASSAY: human insulin-like growth factor-I (IGF-I) (human, UniProt P05019 49-118)
- METHOD: cell-based or functional assay
PROPERTY MEASURED: EC50 (nM), mean (n = 2), IGF-I pTYR of hIGF-IR in NIH3T3 cells
Please state the value followed by its unit.

# input Please look up its EC50 (nM), mean (n = 2), IGF-I pTYR of hIGF-IR in NIH3T3 cells: mAb 7.34.1 (antibody, V domains shown, Fully human XenoMouse hybridoma mAb, lambda light chain (V1-13/JL2); also called ATCC PTA-7423) VH: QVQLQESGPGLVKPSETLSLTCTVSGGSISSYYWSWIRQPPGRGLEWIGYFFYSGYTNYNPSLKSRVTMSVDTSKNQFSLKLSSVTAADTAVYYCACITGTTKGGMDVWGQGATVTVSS VL: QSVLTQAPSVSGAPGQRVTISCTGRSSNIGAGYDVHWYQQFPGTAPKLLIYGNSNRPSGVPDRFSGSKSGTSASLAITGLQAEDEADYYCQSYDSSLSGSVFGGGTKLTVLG
# output 9.4 nM

The measurements presented in this section are drawn from patent US20070196376A1.
